Every entry's value here was drawn from patent US20240246954A1.

Target: Avi-KRAS G12D/Q25A (1-169) GppNHp/3×FLAG-PI3KCA (157-299) (Homo sapiens, UniProt P01116, G12D/Q25A)
Construct: Avi-KRAS G12D/Q25A (1-169) GppNHp
Sequence (P01116 1-169 isoform P01116-2 G12D/Q25A limits assumed): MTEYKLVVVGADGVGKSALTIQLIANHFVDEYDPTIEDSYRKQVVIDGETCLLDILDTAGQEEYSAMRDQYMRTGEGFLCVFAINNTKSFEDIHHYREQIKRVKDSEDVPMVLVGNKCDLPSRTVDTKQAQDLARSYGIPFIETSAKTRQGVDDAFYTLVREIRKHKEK
Experiment: HTRF PI3KCA-KRAS G12D/Q25A-GppNHp disruption assay
Type: biochemical
Conditions: 1 h incubation
Consider the following molecules; for each one, report its IC50.

• Nc1nc2c(-c3c(C(F)(F)F)cc4c(NC5CC6CC[C@@H](C5)N6)nc(OCC56CCCN5CCC6)nc4c3F)ccc(F)c2s1 (stereo partly drawn) [Compound 263] = 1 to 10 µM
• Nc1nc2c(-c3c(Cl)cc4c(N5CC6CCC(C5)N6)nc(OCC56CCCN5CCC6)nc4c3F)ccc(F)c2s1 [Compound 157] = 0.1 to 1 µM
• CCN1[C@@H]2CC[C@H]1CN(c1nc(OC[C@@]34CCCN3C[C@H](F)C4)nc3c(F)c(-c4ccc(F)c5sc(N)nc45)c(C(F)(F)F)cc13)C2 [Compound 315] = 10 to 30 µM
• CN(c1nc(OCC23CCCN2CCC3)nc2c(F)c(-c3ccc(F)c4sc(N)nc34)c(C(F)(F)F)cc12)[C@@H]1CCNC1 (single isomer, unassigned) [Compound 238] = 1 to 10 µM
• CN(c1nc(OCC23CCCN2CCC3)nc2c(F)c(-c3ccc(F)c4sc(N)nc34)c(C(F)(F)F)cc12)[C@H]1C[C@@H]2CC[C@H]1N2 (atropisomer, axis not shown) [Compound 270] = 10 to 30 µM

Exercise: Report IC50 for COc1c(Cl)c(-c2ccc(F)c3sc(N)nc23)c(F)c2ncnc(N3CCNCC3)c12 [Compound 125] please.
Key: 10 to 30 µM

----------
Target: Avi-KRAS G12D (1-169) GppNHp/RAF1 RBD-3×FLAG (52-151) (Homo sapiens, UniProt P01116, G12D)
Construct: Avi-KRAS G12D (1-169) GppNHp
Sequence (P01116 1-169 isoform P01116-2 G12D limits assumed): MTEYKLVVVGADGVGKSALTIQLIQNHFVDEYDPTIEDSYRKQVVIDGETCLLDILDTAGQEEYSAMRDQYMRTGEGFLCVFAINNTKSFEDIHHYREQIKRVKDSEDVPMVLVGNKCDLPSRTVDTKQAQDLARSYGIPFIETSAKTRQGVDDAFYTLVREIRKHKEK
Test: HTRF Raf1-KRAS G12D-GppNHp disruption assay
Details: 1 h incubation
measurement kind: IC50

Go through the list and state IC50 for each entry.
1. Nc1nc2c(-c3c(C(F)(F)F)cc4c(N5CCNCC5)nc(OC[C@]56CCCN5C[C@H](F)C6)nc4c3F)ccc(F)c2s1
2. CN(c1nc(OC[C@@H]2C[C@@H](F)CN2C)nc2c(F)c(-c3ccc(F)c4sc(N)nc34)c(C(F)(F)F)cc12)C1CN(C(=O)CN)C1
3. CN1CCC[C@H]1COc1nc(N2CCN(C(=O)CN)CC2)c2cc(-c3ccoc3)c(-c3ccc(F)c4sc(N)nc34)c(F)c2n1
4. CN1CCC[C@H]1COc1nc(NCCN)c2cc(Cl)c(-c3ccc4nc(N)sc4c3)c(F)c2n1

Key:
["10 to 30 µM", "10 to 30 µM", "10 to 30 µM", "10 to 30 µM"]

Go through the list and state IC50 for each entry.
1. Nc1nc2c(-c3c(C(F)(F)F)cc4c(N5CCNCC5)nc(OCC56CCCN5CCC6)nc4c3F)ccc(F)c2o1
2. CN1CCC(Oc2nc(N3CC4CCC(C3)N4)c3cc(C(F)(F)F)c(-c4ccc(F)c5sc(N)nc45)c(F)c3n2)CC1
3. Nc1nc2c(-c3c(C(F)(F)F)cc4c(N5CC6CCC(C5)N6)nc(OCC5(CN6CC[C@@H](F)C6)CC5)nc4c3F)ccc(F)c2s1
4. CN(c1nc(OCC23CCCN2CCC3)nc2c(F)c(-c3ccc(F)c4sc(N)nc34)c(-c3ccoc3)cc12)C1CN(C(N)=O)C1
5. C[C@@H]1CNCCN1c1nc(OC[C@]23CCCN2C[C@H](F)C3)nc2c(F)c(-c3ccc(F)c4sc(N)nc34)c(C(F)(F)F)cc12
6. CN1CCC[C@H]1COc1nc(NCCN)c2cc(Cl)c(-c3cccc4nc(N)cn34)c(F)c2n1

Key:
["1 to 10 µM", "1 to 10 µM", "0.1 to 1 µM", "1 to 10 µM", "0.1 to 1 µM", "10 to 30 µM"]

Go through the list and state IC50 for each entry.
1. N#Cc1cc2c(N3CC4CCC(C3)N4)nc(OC[C@@]34CCCN3C[C@H](F)C4)nc2c(Cl)c1-c1ccc(F)c2sc(N)c(C#N)c12
2. CN(c1nc(OC[C@@]23CCCN2C[C@H](F)C3)nc2c(F)c(-c3ccc(F)c4sc(N)c(C#N)c34)c(C(F)(F)F)cc12)[C@]1(C)CCNC1
3. CN(c1nc(OCC23CCCN2CCC3)nc2c(F)c(-c3ccc(F)c4sc(N)nc34)c(C(F)(F)F)cc12)C1CN(C(=O)CN)C1

Key:
1: 1 to 10 µM; 2: ≤ 0.1 µM; 3: 1 to 10 µM

----------
Consider the following molecules; for each one, report its pIC50.
Biological target: Avi-KRAS G12D (1-169) GppNHp/RAF1 RBD-3×FLAG (52-151) (Homo sapiens, UniProt P01116, G12D)
Construct: Avi-KRAS G12D (1-169) GppNHp
Assay: HTRF Raf1-KRAS G12D-GppNHp disruption assay
Settings: 1 h incubation
pIC50: −log10 of the molar value.

Recorded results for 4 molecules are shown here.
• CN1CCC[C@H]1COc1nc(NC2CNC2)c2cc(-c3ccoc3)c(-c3ccc(F)c4sc(N)nc34)c(F)c2n1 = 6.00 to 7.00
• CN1CCC[C@H]1COc1nc(N2C[C@H]3NCC[C@H]32)c2cc(Cl)c(-c3ccc(F)c4sc(N)nc34)c(F)c2n1 = 4.52 to 5.00
• CN(c1nc(OCC23CCCN2CCC3)nc2c(F)c(-c3ccc(F)c4sc(N)nc34)c(C(F)(F)F)cc12)[C@H]1CC[C@@H](N)CC1 (atropisomer, axis not shown) = 6.00 to 7.00
• CN1CCC[C@H]1COc1nc(N2CCN(C(=O)CN)[C@@H](CC#N)C2)c2cc(Cl)c(-c3ccc(F)c4sc(N)nc34)c(F)c2n1 = 5.00 to 6.00

Go through the list and state pIC50 for each entry.
1. Nc1nc2c(-c3c(C(F)(F)F)cc4c(NC5CNC5)ncnc4c3F)ccc(F)c2s1
2. C[C@H]1CNC[C@@H]1N(C)c1nc(OC[C@@]23CCCN2C[C@H](F)C3)nc2c(F)c(-c3ccc(F)c4sc(N)nc34)c(C(F)(F)F)cc12
3. NC(=O)N1CC(Nc2nc(OCC34CCCN3CCC4)nc3c(F)c(-c4ccc(F)c5sc(N)nc45)c(C(F)(F)F)cc23)C1
4. C[C@@H]1CN(c2nc(OC[C@@]34CCCN3C[C@H](F)C4)nc3c(F)c(-c4ccc(F)c5sc(N)nc45)c(C(F)F)cc23)[C@@H](C)CN1

Key:
4.52 to 5.00
5.00 to 6.00
6.00 to 7.00
5.00 to 6.00

Go through the list and state pIC50 for each entry.
1. Nc1nc2c(-c3c(OC(F)(F)F)cc4c(N5CCNCC5)nc(OCC56CCCN5CCC6)nc4c3F)ccc(F)c2s1
2. N#Cc1c(N)sc2c(F)ccc(-c3ccc4c(N5CC6CCC(C5)N6)nc(OC[C@@]56CCCN5C[C@H](F)C6)nc4c3F)c12
3. CN(c1nc(OCC23CCCN2CCC3)nc2c(F)c(-c3ccc(F)c4sc(N)nc34)c(-c3ccoc3)cc12)C1CN(C(=O)CN)C1

Key:
["5.00 to 6.00", "6.00 to 7.00", "4.52 to 5.00"]

Go through the list and state pIC50 for each entry.
1. CN1CCC[C@H]1COc1nc(NCCN)c2cc(C(F)(F)F)c(-c3ccc(F)c4sc(N)nc34)c(F)c2n1
2. CN(c1nc(OCC23CCCN2CCC3)nc2c(F)c(-c3ccc(F)c4sc(N)nc34)c(Cl)cc12)C1CN(C(N)=O)C1
3. CN(c1nc(OC[C@@]23CCCN2C[C@H](F)C3)nc2cc(-c3ccc(F)c4sc(N)nc34)c(C(F)(F)F)cc12)[C@H]1CNC[C@H]1F
4. CN1CCC[C@H]1COc1nc(NC2CN(C(=O)CN)C2)c2cc(C(F)(F)F)c(-c3ccc(F)c4sc(N)nc34)c(F)c2n1 [Compound 130]
5. Nc1nc2c(-c3c(C(F)(F)F)cc4c(N5CC6CCC(C5)N6)nc(OC[C@@]56CCCN5C[C@H](F)C6)nc4c3F)ccc(F)c2s1 [Compound 219]
6. N#Cc1c(-c2ccc(F)c3sc(N)c(C#N)c23)c(Cl)cc2c(N3CC4CCC(C3)N4)nc(OC[C@@]34CCCN3C[C@H](F)C4)nc12
7. CN(c1nc(OC[C@@]23CCCN2C[C@H](F)C3)nc2c(F)c(-c3ccc(F)c4sc(N)nc34)c(C(F)(F)F)cc12)C1C2C[C@H]1CN2 (stereo partly shown) [Compound 289]
8. CN1CCC[C@H]1COc1nc(N2CCNCC2)c2cc(C(F)F)c(-c3ccc(F)c4sc(N)nc34)c(F)c2n1

Key:
1. 5.00 to 6.00
2. 5.00 to 6.00
3. 6.00 to 7.00
4. 5.00 to 6.00
5. ≥ 7.00
6. 6.00 to 7.00
7. 6.00 to 7.00
8. 5.00 to 6.00

Go through the list and state pIC50 for each entry.
1. Nc1nc2c(-c3c(C(F)(F)F)cc4c(N5CC6CCCC(C5)N6)nc(OC[C@@]56CCCN5C[C@H](F)C6)nc4c3F)ccc(F)c2s1
2. CN(c1nc(OC[C@@]23CCCN2C[C@H](F)C3)nc2cc(-c3ccc(F)c4sc(N)nc34)c(C(F)(F)F)cc12)[C@H]1CNC[C@@H]1F
3. N#CC[C@H]1CN(c2ncnc3c(F)c(-c4ccc(F)c5sc(N)nc45)c(Cl)cc23)CCN1C(=O)CN
4. NC(=O)N1CC(Nc2nc(OCC34CCCN3CCC4)nc3c(F)c(-c4ccc(F)c5sc(N)nc45)c(-c4ccoc4)cc23)C1

Key:
["6.00 to 7.00", "4.52 to 5.00", "4.52 to 5.00", "4.52 to 5.00"]

Go through the list and state pIC50 for each entry.
1. CN1CCC[C@H]1COc1nc(N2CCNCC2)c2cc(-c3ccoc3)c(-c3ccc(F)c4sc(N)nc34)c(F)c2n1
2. N#Cc1c(N)sc2c(F)ccc(-c3cc4nc(OC[C@@]56CCCN5C[C@H](F)C6)nc(N5CC6CCC(C5)N6)c4cc3C(F)(F)F)c12

Key:
["4.52 to 5.00", "≥ 7.00"]
